// data source = patent US9809573B2

- SYSTEM_UNDER_TEST: GSK3α (Homo sapiens, UniProt P49840)
- Sequence (P49840 whole entry, species assumed): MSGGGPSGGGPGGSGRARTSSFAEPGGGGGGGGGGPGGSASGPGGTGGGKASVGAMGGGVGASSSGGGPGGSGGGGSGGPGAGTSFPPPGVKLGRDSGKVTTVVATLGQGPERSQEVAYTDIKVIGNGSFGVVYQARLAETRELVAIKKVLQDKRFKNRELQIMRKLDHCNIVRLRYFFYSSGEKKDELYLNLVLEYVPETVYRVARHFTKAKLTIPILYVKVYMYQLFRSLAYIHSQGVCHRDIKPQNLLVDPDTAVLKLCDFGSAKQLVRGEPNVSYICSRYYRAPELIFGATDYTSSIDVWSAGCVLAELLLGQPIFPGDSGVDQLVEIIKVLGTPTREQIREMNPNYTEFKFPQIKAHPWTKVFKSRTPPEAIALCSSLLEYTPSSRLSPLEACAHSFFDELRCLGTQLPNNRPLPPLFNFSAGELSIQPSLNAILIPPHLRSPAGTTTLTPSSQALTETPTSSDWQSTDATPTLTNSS
- PROCEDURE_SUMMARY: biochemical
- STUDY_CONDITIONS: second value of the cell; 250 pM enzyme, 20 uM ATP, 20 hours at room temperature; read-out: GSK3β/α (nM): GSK3α IC50
- Description: The kinase assay was performed in V-bottom 384-well plates. […] The reaction was incubated at room temperature for 20 hours and terminated by adding 45 μl of 35 mM EDTA to each sample. The reaction mixture was analyzed on the Caliper LabChip3000 (Caliper, Hopkinton, Mass.) by electrophoretic separation of the unphosphorylated substrate and phosphorylated product. […] Compounds were dissolved at 10 mM in dimethylsulfoxide (DMSO) and evaluated at eleven concentrations. […]
The following compounds are listed with their measured IC50 values.
MEASURE_NAME: IC50 (nM)

                                    compound  measured
 0  COc1ccccc1-c1cncc(NC(=O)c2ccnc(NC(=O)C3CC3)c2)c1 [Example 123]       1.4
 1  Cc1cc(NC(=O)c2ccnc(NC(=O)C3CC3)c2)cnc1F [Example 8]        24
 2  CC(C)C(=O)Nc1cc(C(=O)Nc2cnccc2C(F)(F)c2ccccc2)ccn1 [Example 198]       230
 3  CC(=O)c1ccccc1-c1cncc(NC(=O)c2ccnc(NC(=O)C3CC3)c2)c1 [Example 144]        15
 4  O=C(Nc1cnccc1N1CCCCC1)c1ccnc(NC(=O)C2CC2)c1 [Example 50]      0.35
 5  N#Cc1ccc(-c2ccncc2NC(=O)c2ccnc(NC(=O)C3CC3)c2)c(F)c1 [Example 85]      0.94
 6  Cc1ncc(-c2cncc(NC(=O)c3ccnc(NC(=O)C4CC4)c3)c2)s1 [Example 159]       1.9
 7  O=C(Nc1cnccc1-c1ccccc1)c1ccnc(NC(=O)[C@H]2C[C@H](O)C2)c1 [Example 219]       6.4
 8  Cc1ccc(NC(=O)c2ccnc(NC(=O)C3CC3)c2)cn1 [Example 11]        15
 9  O=C(Nc1cncc(-c2cccc(Cl)c2)c1)c1ccnc(NC(=O)C2CC2)c1 [Example 155]       3.3
10  O=C(Nc1cnccc1-c1ccc(C(F)(F)F)cc1C(F)(F)F)c1ccnc(NC(=O)C2CC2)c1 [Example 65]        25
11  CCCOc1ccccc1-c1cncc(NC(=O)c2ccnc(NC(=O)C3CC3)c2)c1 [Example 146]       3.4
12  NC(=O)c1cncc(NC(=O)c2ccnc(NC(=O)C3CC3)c2)c1 [Example 105]       3.6
13  Cc1cscc1-c1cncc(NC(=O)c2ccnc(NC(=O)C3CC3)c2)c1 [Example 130]      0.41
14  O=C(Nc1cncc(-c2ccc(Cl)cc2Cl)c1)c1ccnc(NC(=O)C2CC2)c1 [Example 148]       2.4
15  O=C(Nc1cncc(-c2ccc(F)cc2)c1)c1ccnc(NC(=O)C2CC2)c1 [Example 111]      0.95
16  CC(C)C(=O)Nc1cc(C(=O)Nc2cncc(C(O)c3ccccc3)c2)ccn1 (stereo not drawn) [Example 197]        12
17  CCOc1ccncc1NC(=O)c1ccnc(NC(=O)C2CCC2)c1 [Example 211]       0.9
